Reference for the values: the supplement of paper PMC6757056

B1: library; a variant is named by its letters at N, in order (parent)
chain: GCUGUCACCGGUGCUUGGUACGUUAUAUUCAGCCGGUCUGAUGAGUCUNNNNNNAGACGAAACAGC

# Variants of: B1
# experimental_details: normalized RNA/DNA level with ligand (relative to sTRSVctl = 100) (log10 (% of sTRSVctl)); HEK293T overexpressing SLC46A1; ligand concentration (+) RNA-Seq: 6 mM; higher = less ribozyme self-cleavage, higher mRNA level
# run_parameters: with (6R,S)-folinic acid; ligand present: yes
parameter: normalized RNA/DNA level with ligand (log10)
Note: the reply should be a number with no unit written.

>>> reported_measurement("UGCCCA")
1.99

So, ACUCUG ? Its normalized RNA/DNA level with ligand (log10) was 2

So, CGCGCG ? Its normalized RNA/DNA level with ligand (log10) was 1.95

So, GAGAGU ? Its normalized RNA/DNA level with ligand (log10) was 2.01

So, UGGAAA ? Its normalized RNA/DNA level with ligand (log10) was 1.98

So, AGUGCC ? Its normalized RNA/DNA level with ligand (log10) was 2.07

So, GCACCU ? Its normalized RNA/DNA level with ligand (log10) was 2.01

So, UAACUC ? Its normalized RNA/DNA level with ligand (log10) was 2.03

So, CGGUCC ? Its normalized RNA/DNA level with ligand (log10) was 2.03

So, CAAAUU ? Its normalized RNA/DNA level with ligand (log10) was 2.03

So, GCGUCU ? Its normalized RNA/DNA level with ligand (log10) was 2.07
